# STUDY SYSTEM: T1, BSA coupled 37-mer Cad-11 peptide encompassing the Cad-11 immunogen (UniProt P55287 54-90, limits assumed, linked to BSA)
# T1 construct: domain: 37-mer peptide encompassing the Cad-11 immunogen; also called Cad-11 antigen; Cad-11 peptide immunogen
# T1 peptide (looked up): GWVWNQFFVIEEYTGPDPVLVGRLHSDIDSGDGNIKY
# ASSAY NAME: ELISA, BSA-coupled 37-mer cadherin peptide coated at 500 ng/ml, antibody titrated, A450
READOUT KIND: EC50 (read off the curve)

Look over these answered cases.
INSERT INTO assay_data (binder, readout_kind, observed_measurement) VALUES
  ('humanized anti-Cad-11 antibody SDP031 (Vκ1/VH3) (antibody, IgG4, V domains shown, humanized IgG4 (S241P), kappa) VH: EVQLVQSGAEVKKPGASVKISCKASGYSFTGYFMNWVRQAPGQGLEWIGRINPYTGDTFYNQKFKGRATLTVDKSTSTAYMELSSLRSEDTAVYYCGRLGSRYWYFDVWGQGTTVTVSS VL: DVLMTQTPLSSPVTLGQPASISCRSSQSIIHSNGNTYLEWYLQKPGQSPQLLIYKVSNRFSGVPDRFTGSGSGTDFTLKISRVEAEDVGVYYCFQGSHVPWTFGQGTKLEIK', 'EC50 (read off the curve)', '~0.06 µg/mL'),
  ('humanized anti-Cad-11 antibody SDP151 (Vκ3/VH5) (antibody, IgG4, V domains shown, humanized IgG4 (S241P), kappa) VH: EVQLVQSGAEVKKPGASVKVSCKASGYSFTGYFMNWVRQAPGQGLEWIGRINPYTGDTFYNQKFKGRVTITVDKSTSTAYMELSSLRSEDTAVYYCGRLGSRYWYFDVWGQGTTVTVSS VL: DVVMTQTPLSSPVTLGQPASISCRSSQSIIHSNGNTYLEWYLQKPGQSPQLLIYKVSNRFSGVPDRFSGSGSGTDFTLKISRVEAEDVGVYYCFQGSHVPWTFGQGTKLEIK', 'EC50 (read off the curve)', '~0.06 µg/mL'),
  ('humanized anti-Cad-11 antibody SDP121 (Vκ3/VH2) (antibody, IgG4, V domains shown, humanized IgG4 (S241P), kappa) VH: EVQLVQSGAEVKKPGASVKISCKASGYSFTGYFMNWVKQAPGQGLEWIGRINPYTGDTFYNQKFKGRATLTVDKSTSTAYMELSSLRSEDTAVYYCGRLGSRYWYFDVWGQGTTVTVSS VL: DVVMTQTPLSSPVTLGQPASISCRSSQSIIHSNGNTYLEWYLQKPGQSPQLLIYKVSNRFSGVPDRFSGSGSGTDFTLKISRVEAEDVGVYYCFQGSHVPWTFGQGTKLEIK', 'EC50 (read off the curve)', '~0.06 µg/mL'),
  ('humanized anti-Cad-11 antibody SDP111 (Vκ3/VH1) (antibody, IgG4, V domains shown, humanized IgG4 (S241P), kappa) VH: EVQLVQSGPELKKPGASVKISCKASGYSFTGYFMNWVKQAHGQGLEWIGRINPYTGDTFYNQKFKGRATLTVDKSSSTAYMELVSLSSEDSAVYYCGRLGSRYWYFDVWGQGTTVTVSS VL: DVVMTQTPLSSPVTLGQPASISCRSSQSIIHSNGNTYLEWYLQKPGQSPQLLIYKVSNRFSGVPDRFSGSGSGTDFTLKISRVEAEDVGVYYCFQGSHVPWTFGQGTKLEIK', 'EC50 (read off the curve)', '~0.07 µg/mL');

Okay, next one:
[Q] Given humanized anti-Cad-11 antibody SDP081 (Vκ2/VH3) (antibody, IgG4, V domains shown, humanized IgG4 (S241P), kappa) VH: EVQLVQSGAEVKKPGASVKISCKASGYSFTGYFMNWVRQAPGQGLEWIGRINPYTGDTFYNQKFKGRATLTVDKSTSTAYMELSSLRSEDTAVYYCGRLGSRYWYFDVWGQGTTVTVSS VL: DVLMTQTPLSSPVTLGQPASISCRSSQSIIHSNGNTYLEWYLQKPGQSPQLLIYKVSNRFSGVPDRFSGSGSGTDFTLKISRVEAEDVGVYYCFQGSHVPWTFGQGTKLEIK , state its recorded EC50 (read off the curve).
[A] ~0.08 µg/mL
